- measured on: Solute carrier family 22 member 7 (Homo sapiens)
- Sequence (Q9Y694 whole entry): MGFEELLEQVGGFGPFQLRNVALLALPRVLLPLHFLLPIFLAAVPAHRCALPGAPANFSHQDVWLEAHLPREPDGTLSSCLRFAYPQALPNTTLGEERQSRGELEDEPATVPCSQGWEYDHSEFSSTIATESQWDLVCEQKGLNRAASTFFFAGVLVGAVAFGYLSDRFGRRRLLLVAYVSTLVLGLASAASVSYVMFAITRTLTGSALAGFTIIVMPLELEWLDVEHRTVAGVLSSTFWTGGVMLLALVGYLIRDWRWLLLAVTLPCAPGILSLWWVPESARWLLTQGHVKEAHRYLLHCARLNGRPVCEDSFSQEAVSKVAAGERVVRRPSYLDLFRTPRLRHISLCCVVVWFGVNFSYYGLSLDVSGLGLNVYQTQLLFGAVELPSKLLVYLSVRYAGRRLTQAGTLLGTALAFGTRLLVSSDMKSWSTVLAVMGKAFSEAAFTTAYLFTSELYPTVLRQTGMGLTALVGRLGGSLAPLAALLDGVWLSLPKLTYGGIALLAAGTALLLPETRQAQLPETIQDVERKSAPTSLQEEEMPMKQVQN
- procedure summary: TP_TRANSPORTER: inhibition of PGF2alpha uptake in OAT2-expressing S2 cells
pKi: −log10 of the molar value.

| structure | measured on | pKi |
| --- | --- | --- |
| CCCN(CCC)S(=O)(=O)c1ccc(C(=O)O)cc1 | Solute carrier family 22 member 7 (Homo sapiens) | 3.12 |

* * *

- measured on: Solute carrier family 22 member 11 (Homo sapiens, UniProt Q9NSA0)
- Sequence (Q9NSA0 whole entry): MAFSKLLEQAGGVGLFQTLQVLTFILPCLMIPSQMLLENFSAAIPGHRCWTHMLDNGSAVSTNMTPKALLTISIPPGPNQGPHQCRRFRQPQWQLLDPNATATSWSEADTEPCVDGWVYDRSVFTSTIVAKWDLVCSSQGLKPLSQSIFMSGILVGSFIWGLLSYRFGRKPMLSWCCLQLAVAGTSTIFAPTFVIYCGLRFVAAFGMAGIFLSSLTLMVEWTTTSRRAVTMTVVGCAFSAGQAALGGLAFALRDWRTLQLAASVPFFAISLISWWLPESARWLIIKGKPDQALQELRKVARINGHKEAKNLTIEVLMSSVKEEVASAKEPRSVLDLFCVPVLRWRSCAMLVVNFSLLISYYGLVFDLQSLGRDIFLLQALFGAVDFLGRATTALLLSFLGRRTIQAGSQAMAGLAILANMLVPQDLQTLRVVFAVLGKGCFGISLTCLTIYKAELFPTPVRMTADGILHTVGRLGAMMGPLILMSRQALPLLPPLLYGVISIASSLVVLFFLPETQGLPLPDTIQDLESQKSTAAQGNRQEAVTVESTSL
- procedure summary: TP_TRANSPORTER: inhibition of E1S uptake in OAT4-expressing S2 cells
Ki values by entry

| structure | measured on | Ki |
| --- | --- | --- |
| O=C(O)CCNC(=O)c1ccccc1 | Solute carrier family 22 member 11 (Homo sapiens, UniProt Q9NSA0) | 502 µM |
| CCCn1c(=O)c2[nH]c(C34CC5CC(CC3C5)C4)nc2n(CCC)c1=O | Solute carrier family 22 member 11 (Homo sapiens, UniProt Q9NSA0) | 20.7 µM |

Where these numbers come from: ChEMBL document CHEMBL2074113
